- measured.on: 5'-nucleotidase (Rattus norvegicus, UniProt P21588)
- Sequence (P21588 whole entry): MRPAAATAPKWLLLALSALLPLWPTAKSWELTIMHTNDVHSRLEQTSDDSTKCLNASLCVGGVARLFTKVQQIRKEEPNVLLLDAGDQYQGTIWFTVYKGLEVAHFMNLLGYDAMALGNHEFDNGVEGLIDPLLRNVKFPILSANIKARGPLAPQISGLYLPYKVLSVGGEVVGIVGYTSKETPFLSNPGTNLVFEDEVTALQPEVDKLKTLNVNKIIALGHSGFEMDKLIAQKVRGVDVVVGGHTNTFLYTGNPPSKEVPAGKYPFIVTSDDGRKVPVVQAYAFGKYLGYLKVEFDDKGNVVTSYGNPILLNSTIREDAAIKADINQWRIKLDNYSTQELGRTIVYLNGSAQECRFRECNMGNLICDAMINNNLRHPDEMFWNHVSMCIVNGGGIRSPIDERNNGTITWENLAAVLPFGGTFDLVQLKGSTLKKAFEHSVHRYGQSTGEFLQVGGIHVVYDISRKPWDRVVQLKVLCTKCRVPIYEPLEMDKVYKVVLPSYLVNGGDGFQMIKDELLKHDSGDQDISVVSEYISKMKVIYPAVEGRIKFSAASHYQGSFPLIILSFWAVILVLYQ
- test.protocol: Inhibition of rat recombinant ecto-5'-nucleotidase using [3H]AMP substrate
readout.type: IC50 (µM)

{"columns": ["compound", "measurement.unit", "IC50"],
 "data": [
  ["NS(=O)(=O)c1ccc(N/N=C/c2ccc(O)cc2)c([N+](=O)[O-])c1", "µM", 8.03],
  ["NS(=O)(=O)c1ccc(N/N=C/c2ccccc2O)c([N+](=O)[O-])c1", "µM", 9.46],
  ["NS(=O)(=O)c1ccc(N/N=C/c2cccc(Oc3ccccc3)c2)c([N+](=O)[O-])c1", "µM", 3.99],
  ["NS(=O)(=O)c1ccc(N/N=C/c2c(O)ccc3ccccc23)c([N+](=O)[O-])c1", "µM", 6.54],
  ["CCOc1ccc(C(=O)NC(=S)Nc2ccc(S(N)(=O)=O)cc2)cc1Cl", "µM", 46.5],
  ["NS(=O)(=O)c1ccc(N/N=C/c2cccc(O)c2)c([N+](=O)[O-])c1", "µM", 18.4],
  ["Cc1c(NC(=O)c2ccc3c(c2)NC(=O)CO3)c(=O)n(-c2ccccc2)n1C", "µM", 50.9]
]}

a. O=C(NC(=S)Nc1ccc(S(=O)(=O)c2ccc(NC(=S)NC(=O)c3ccccc3)cc2)cc1)c1ccccc1
b. Cc1oc(-c2ccc(Cl)cc2)cc1C(=O)Nc1ccc(S(N)(=O)=O)cc1
Compare the recorded IC50 of a and b ; state which is larger. Response format: the label of the selected entry.
b
(b: 45.1 µM, a: 7.1 µM)

----------
- measured.on: 5'-nucleotidase (Rattus norvegicus, UniProt P21588)
- test.protocol: Inhibition of rat recombinant ecto-5'-nucleotidase using [3H]AMP substrate
readout.type: IC50 (µM)

{"columns": ["compound", "measured.on", "IC50, µM"],
 "data": [
  ["NS(=O)(=O)c1cc(Cl)c(NC(=O)c2c(O)[nH]c3ccccc3c2=O)c(Cl)c1", "5'-nucleotidase (Rattus norvegicus, UniProt P21588)", 15.5]
]}

1. COc1cccc2cc(C(=O)Nc3ccc(S(N)(=O)=O)cc3)c(=O)oc12
2. NS(=O)(=O)c1ccc(NC(=O)c2cc3cc(Cl)cc(Cl)c3oc2=O)cc1
Look at 1 and 2 . Which one has the lower recorded IC50 number? Response format: the label of the selected entry.
1
(1: 16.6 µM, 2: 74.8 µM)

The values you see were collected from ChEMBL document CHEMBL2163312.
